Values were extracted from patent US20260152527A1.

biological target: human recombinant MC4R (CHO-K1/Gα15 stable cell line, GenScript) (human, UniProt P32245 1-332); experiment: cell-based or functional assay
Sequence (P32245 whole entry): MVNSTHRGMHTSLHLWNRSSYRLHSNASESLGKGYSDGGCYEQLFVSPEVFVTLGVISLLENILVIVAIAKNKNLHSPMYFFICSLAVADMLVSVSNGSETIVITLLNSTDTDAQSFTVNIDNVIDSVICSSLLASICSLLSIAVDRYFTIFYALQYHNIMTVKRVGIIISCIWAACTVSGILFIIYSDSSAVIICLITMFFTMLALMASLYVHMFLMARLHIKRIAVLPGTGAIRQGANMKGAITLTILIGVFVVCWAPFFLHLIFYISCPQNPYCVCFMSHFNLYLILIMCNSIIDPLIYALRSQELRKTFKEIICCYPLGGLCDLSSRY
Starred links: 1 amine or outer side, 2 acyl side, 3 side chain; linkers in the order of their positions; H or OH if unused. Positions of bridges follow the written chain, without caps; N, C: chain ends. Non-standard residues stand in square brackets, D forms with d. *: point of attachment. Hgln = homoglutamine, NC(=O)CCC[C@H](N[*:1])C(=O)[*:2]; Benzoyl(3,5-(OH)2) = O=C(c1cc(O)cc(O)c1)*; NMeW = CN[C@@H](Cc1c[nH]c2ccccc12)C(=O)O; Lys(N3) = [N-]=[N+]=NCCCC[C@H](N)C(=O)O; dPhe(4-F) = N[C@H](Cc1ccc(F)cc1)C(=O)O; NMeH = CN[C@@H](Cc1c[nH]cn1)C(=O)O; NMeR = CN[C@@H](CCCNC(=N)N)C(=O)O; R8 = C=CCCCCCC[C@@](C)(N)C(=O)O; S5 = C=CCCC[C@](C)(N)C(=O)O; Nle = CCCC[C@H](N)C(=O)O; Pra = C#CC[C@H](N)C(=O)O
recorded-endpoint: MC4R IC50 (nM)

A selection of reference data follows.
Ac-[Nle][Lys(N3)][NMeH][dF][NMeR]W[Pra]-NH2 (triazole 2-7; not fully specified) [KR-052]    122
Ac-[Nle][Lys(N3)]H[dF]RW[Pra]K-NH2 (triazole 2-7) [KR-037]    35
Ac-SYSMEHFRWGK-NH2 [KR-006]    80.9
{Benzoyl(3,5-(OH)2)}-[Nle][Lys(N3)]H[dPhe(4-F)]RW[Pra][Hgln]-NH2 (triazole 2-7; not fully specified; printed as HyBA-Nle-[Lys(N3)-His-Dphe(4-F)-Arg-Trp-Pra]-Hgln-NH2) [KR-071]    103
Ac-[R8]EHFRWG[S5]-NH2 (staple 1-8; SMILES CC(=O)N[C@]1(C)CCCCCCC=CCCC[C@@](C)(C(N)=O)NC(=O)CNC(=O)[C@H](Cc2c[nH]c3ccccc23)NC(=O)[C@H](CCCNC(=N)N)NC(=O)[C@H](Cc2ccccc2)NC(=O)[C@H](Cc2c[nH]cn2)NC(=O)[C@H](CCC(=O)O)NC1=O) [KR-015]    485

(A) Ac-[Nle][Lys(N3)]H[dF]R[NMeW][Pra]-NH2 (triazole 2-7) [KR-046]
(B) Ac-YSMEHFRWGKPV-NH2 [KR-001]
(C) Ac-[Nle][Lys(N3)]H[dPhe(4-F)]RW[Pra]-NH2 (triazole 2-7) [KR-049]
-- ask Rank descending by MC4R IC50. # the answer lists labels in the order requested
-- reply B, A, C
(B: 87.6 nM, A: 39.3 nM, C: 16.1 nM)
